System name: KAINR ion channel (human recombinant GluK1 subunit) (Homo sapiens, UniProt P39086)
Construct: open reading frame ORF 1-918 version containing Q glutamine at the Q/R editing site
Sequence (P39086 31-918): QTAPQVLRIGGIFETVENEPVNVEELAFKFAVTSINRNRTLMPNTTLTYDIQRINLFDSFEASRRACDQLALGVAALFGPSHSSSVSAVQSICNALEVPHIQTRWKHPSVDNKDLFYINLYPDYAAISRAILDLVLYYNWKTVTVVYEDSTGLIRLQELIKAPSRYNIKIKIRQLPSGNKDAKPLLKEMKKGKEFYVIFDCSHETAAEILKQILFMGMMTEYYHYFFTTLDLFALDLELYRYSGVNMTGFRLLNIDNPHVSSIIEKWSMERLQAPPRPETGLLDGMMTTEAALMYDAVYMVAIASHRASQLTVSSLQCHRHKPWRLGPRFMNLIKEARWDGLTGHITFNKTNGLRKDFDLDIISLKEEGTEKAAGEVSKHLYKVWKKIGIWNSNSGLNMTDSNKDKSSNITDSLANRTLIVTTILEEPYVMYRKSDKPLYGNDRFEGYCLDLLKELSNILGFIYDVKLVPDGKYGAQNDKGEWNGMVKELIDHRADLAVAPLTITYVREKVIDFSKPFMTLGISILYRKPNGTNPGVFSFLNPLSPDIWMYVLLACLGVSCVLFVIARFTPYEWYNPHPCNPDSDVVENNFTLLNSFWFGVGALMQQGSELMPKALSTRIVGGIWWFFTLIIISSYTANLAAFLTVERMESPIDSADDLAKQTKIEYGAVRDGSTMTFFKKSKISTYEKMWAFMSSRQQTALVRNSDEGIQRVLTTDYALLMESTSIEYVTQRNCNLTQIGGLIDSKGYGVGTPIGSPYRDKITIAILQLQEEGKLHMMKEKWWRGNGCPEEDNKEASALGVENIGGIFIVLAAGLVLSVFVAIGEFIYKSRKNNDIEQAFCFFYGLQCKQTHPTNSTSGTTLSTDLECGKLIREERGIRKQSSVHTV
Test summary: Kainate assay: whole cell patch clamp of Kainate-induced currents in HEK293 cells transiently transfected with GRIK1
Test conditions: Kainate 20 μM; HEK293 cells transfected with plasmid S0001; n = 3 to 4; read-out: IC50 value + SEM, Kainate-induced GluK1 currents
Attribute measured: pIC50
// pIC50 is dimensionless: -log10 of concentration (M)

stdin: Given O=C(O)[C@@H]1C[C@H]2C[C@@H](CCc3nn[nH]n3)CC[C@H]2CN1 [Compound A01, Tezampanel, reference compound] , state its recorded pIC50.
stdout: 5.96

* * *

Test system: AMPA receptor
Test summary: whole cell patch-clamp recording of s-AMPA-induced currents in rat brain slice prefrontal cortex pyramidal neurons
Assay type: cell-based
Test conditions: 20 μM s-AMPA; rat brain slice PFC pyramidal neurons; n=4 to 5 experiments per concentration; read-out: IC50, inhibition of peak amplitude responses to s-AMPA induced currents
Attribute measured: IC50 (nM)
Expressed in nM, but write only the number.

stdin: Enter reported IC50 observed with AMPA receptor for O=C(O)[C@@H]1C[C@H]2C[C@@H](CCc3nn[nH]n3)CC[C@H]2CN1 [Compound A01, Tezampanel, reference compound]
stdout: 481

Hello, the source for this data is patent US20250074887A1, in case you need it.
